Source of measurements: patent US20240002393A1

Some compounds, each annotated with its measured Efficacy (GABA)%.
measurement-target: h-GABA-A α2β2γ1 (Homo sapiens (Human), UniProt P47869+Q8N1C3)
test: Two-electrode voltage clamp electrophysiology in Xenopus oocytes expressing GABAA receptors
Assay type: cell-based
measurement-setup: % modulation of GABA EC20 = 100*(Fold increase−1), compound at 30-fold Ki
Supply the numeric figure in %, leaving out any unit text.

These recorded examples may help you get a feel for the data.
[
  {
    "mol-smiles": "Cc1nnc2n1-c1ccc(C(F)F)c(Cl)c1C(c1c(F)cccc1F)=N[C@H]2C",
    "Efficacy (GABA)% (%)": 135
  },
  {
    "mol-smiles": "C[C@@H]1N=C(c2ncccc2F)c2c(ccc(Br)c2Cl)-n2c(C3CC3)nnc21",
    "Efficacy (GABA)% (%)": 102
  },
  {
    "mol-smiles": "C[C@@H]1N=C(c2c(F)cccc2F)c2c(ccc(C(F)(F)F)c2Cl)-n2c(CO)nnc21",
    "Efficacy (GABA)% (%)": 123
  }
]

What the record says about C[C@@H]1N=C(c2c(F)cccc2F)c2c(ccc(Cl)c2Br)-n2c(-c3ccncn3)nnc21 : Efficacy (GABA)% is 62
